TARGET_SYSTEM: DGKα (Homo sapiens (Human))
Sequence (P23743 whole entry): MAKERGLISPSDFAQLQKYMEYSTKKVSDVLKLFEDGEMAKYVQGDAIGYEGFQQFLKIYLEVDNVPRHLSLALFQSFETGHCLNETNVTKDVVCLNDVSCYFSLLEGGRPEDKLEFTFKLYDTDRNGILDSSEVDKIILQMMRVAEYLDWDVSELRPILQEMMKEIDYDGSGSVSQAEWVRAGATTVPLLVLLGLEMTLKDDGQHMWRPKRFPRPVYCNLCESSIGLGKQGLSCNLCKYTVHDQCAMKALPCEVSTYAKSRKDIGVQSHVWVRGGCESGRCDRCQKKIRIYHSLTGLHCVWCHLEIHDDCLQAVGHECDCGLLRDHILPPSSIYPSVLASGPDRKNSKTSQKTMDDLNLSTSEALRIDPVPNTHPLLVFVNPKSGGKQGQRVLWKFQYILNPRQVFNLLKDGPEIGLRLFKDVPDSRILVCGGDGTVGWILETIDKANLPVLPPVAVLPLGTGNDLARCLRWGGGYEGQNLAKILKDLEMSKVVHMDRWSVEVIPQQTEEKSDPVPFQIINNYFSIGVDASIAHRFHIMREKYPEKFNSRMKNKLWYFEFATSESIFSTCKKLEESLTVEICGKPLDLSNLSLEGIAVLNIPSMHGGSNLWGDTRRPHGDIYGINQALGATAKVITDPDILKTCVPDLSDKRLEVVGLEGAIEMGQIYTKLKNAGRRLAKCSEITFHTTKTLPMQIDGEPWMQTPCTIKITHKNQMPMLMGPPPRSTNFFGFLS
pIC50: −log10 of the molar value.
Parameter: pIC50. Scope: all listed entries.
PROPERTY: pIC50

molecule="COCCn1cc2c(n1)c(N1C[C@@H](C)N(C(C)c3ccc4nccnc4c3)C[C@@H]1C)cc(=O)n2C (stereo partly drawn)" censor_symbol== quantitative_result=4.68
molecule=CC[C@@H]1CN(c2cc(=O)n(C)c3cn(CC#N)nc23)[C@@H](CC)CN1C(=O)c1cnc2ccccc2n1 censor_symbol== quantitative_result=6.21
molecule=C[C@@H]1CN(c2cc(=O)n(C)c3c(F)nn(CC#N)c23)[C@@H](C)CN1[C@H](C)c1ccc2nccnc2c1 censor_symbol=< quantitative_result=5.00
molecule="CC[C@H]1CN(C(C)c2cccc(CO)c2)[C@H](CC)CN1c1cc(=O)n(C)c2cn(CC#N)nc12 (stereo partly drawn) [Compound A121b]" censor_symbol== quantitative_result=5.38
molecule="CC(c1ccc2nccnc2c1)N1C[C@H](C)N(c2cc(=O)n(C)c3cn(C(C)C)nc23)C[C@H]1C (stereo partly drawn)" censor_symbol== quantitative_result=5.24
molecule="CC[C@H]1CN(C(C)c2ccccc2OC)[C@H](CC)CN1c1cc(=O)n(C)c2cn(CC#N)nc12 (single isomer, unassigned) [Compound A106b]" censor_symbol=< quantitative_result=5.00
molecule="CC[C@@H]1CN(c2cc(=O)n(C)c3cn(CC#N)nc23)CCN1C(C)c1ccc2nccnc2c1 (single isomer, unassigned) [Compound A161a]" censor_symbol=< quantitative_result=5.00
molecule="CC(c1ccc2nccnc2c1)N1C[C@H](C)N(c2cc(=O)n(C)c3cn(CCN(C)C)nc23)C[C@H]1C (stereo partly drawn)" censor_symbol=< quantitative_result=3.82
molecule="CC[C@H]1CN(C(C)c2cnccn2)[C@H](CC)CN1c1cc(=O)n(C)c2cn(CC#N)nc12 (stereo partly drawn)" censor_symbol== quantitative_result=6.93
molecule="CC[C@H]1CN(C(C)c2ccc(OC(F)F)nc2)[C@H](CC)CN1c1cc(=O)n(C)c2cn(CC#N)nc12 (single isomer, unassigned) [Compound A180a]" censor_symbol== quantitative_result=6.14
molecule="C[C@@H]1CN(c2cc(=O)n(C)c3c(C(F)(F)F)nn(CC#N)c23)[C@@H](C)CN1[C@@H](C)c1ccc2nccnc2c1 (single isomer, unassigned)" censor_symbol=< quantitative_result=5.00
molecule="CC[C@H]1CN(C(C)c2ccc(C)cc2)[C@H](CC)CN1c1cc(=O)n(C)c2cn(CC#N)nc12 (single isomer, unassigned) [Compound A127a]" censor_symbol== quantitative_result=7.43
molecule="CC(c1ccc2c(n1)OC(C)(C)CO2)N1C[C@H](C)N(c2cc(=O)n(C)c3cn(CC#N)nc23)C[C@H]1C (stereo partly drawn)" censor_symbol== quantitative_result=3.99
molecule="CC[C@H]1CN(C(C)c2ccc(F)cn2)[C@H](CC)CN1c1cc(=O)n(C)c2cn(CC#N)nc12 (single isomer, unassigned) [Compound A74b]" censor_symbol== quantitative_result=6.73
molecule="CC[C@H]1CN(C(C)c2ccc3nccnc3c2)[C@H](CC)CN1c1cc(=O)n(C)c2cn(CC#N)nc12 (mixture of isomers) [Compound A28]" censor_symbol== quantitative_result=6.51
molecule="CC[C@@H]1CN(c2cc(=O)[nH]c3cn(CC#N)nc23)[C@@H](C)CN1C(C)c1ccc2nccnc2c1 (single isomer, unassigned) [Compound A177a]" censor_symbol== quantitative_result=5.09
molecule="CC#CCn1cc2c(n1)c(N1C[C@@H](CC)N(C(C)c3ccc(C(F)(F)F)cc3F)C[C@@H]1CC)cc(=O)n2C (single isomer, unassigned) [Compound A334a]" censor_symbol== quantitative_result=6.51
molecule="Cc1c2c(nn1CC#N)c(N1C[C@@H](C)N(C(C)c3ccc4nccnc4c3)C[C@@H]1C)cc(=O)n2C (stereo partly drawn)" censor_symbol== quantitative_result=4.67
molecule="CC[C@H]1CN(C(C)c2cnc3ccccc3n2)[C@H](CC)CN1c1cc(=O)n(C)c2cn(CC#N)nc12 (single isomer, unassigned) [Compound A155b]" censor_symbol== quantitative_result=7.49
molecule="CC(c1ccc2nccnc2c1)N1C[C@H](C)N(c2cc(=O)[nH]c3cn(CC#N)nc23)C[C@H]1C (single isomer, unassigned) [Compound A260]" censor_symbol=< quantitative_result=5.00
molecule="CC[C@H]1CN(C(C)c2ccc(C(F)(F)F)cc2F)[C@H](CC)CN1c1cc(=O)n(C)c2c[nH]nc12 (single isomer, unassigned) [Compound A231a]" censor_symbol== quantitative_result=5.95
molecule="CC[C@H]1CN(C(C)c2ccc(F)cc2F)[C@H](CC)CN1c1cc(=O)n(C)c2cn(CC#N)nc12 (single isomer, unassigned) [Compound A132a]" censor_symbol== quantitative_result=8.05
molecule="CC#CCn1cc2c(n1)c(N1C[C@@H](CC)N(C(C)c3ccc(F)cc3C(F)(F)F)C[C@@H]1CC)cc(=O)n2C (single isomer, unassigned) [Compound A238b]" censor_symbol== quantitative_result=5.91
molecule="CC(C1CCCCC1)N1C[C@H](C)N(c2cc(=O)n(C)c3cn(CC#N)nc23)C[C@H]1C (stereo partly drawn)" censor_symbol=< quantitative_result=5.00
